Reported values of pIC50 for individual entries
testedTarget: Glycylpeptide N-tetradecanoyltransferase 1 (Homo sapiens)
Sequence (P30419 whole entry): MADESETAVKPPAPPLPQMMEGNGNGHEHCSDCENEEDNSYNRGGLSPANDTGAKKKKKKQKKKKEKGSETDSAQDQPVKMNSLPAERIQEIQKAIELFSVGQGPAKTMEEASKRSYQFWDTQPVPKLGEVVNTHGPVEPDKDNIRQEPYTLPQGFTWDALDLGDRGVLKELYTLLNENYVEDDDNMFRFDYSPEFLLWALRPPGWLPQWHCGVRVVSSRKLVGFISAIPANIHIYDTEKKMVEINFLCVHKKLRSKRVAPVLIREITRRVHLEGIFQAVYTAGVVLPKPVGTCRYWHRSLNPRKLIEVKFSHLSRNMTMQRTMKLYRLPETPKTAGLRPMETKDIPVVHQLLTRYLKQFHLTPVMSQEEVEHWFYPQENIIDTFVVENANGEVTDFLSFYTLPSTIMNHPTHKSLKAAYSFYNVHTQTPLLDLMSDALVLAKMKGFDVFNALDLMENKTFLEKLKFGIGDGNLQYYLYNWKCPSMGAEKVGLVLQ
pIC50: −log10 of the molar value.
measuredAttribute: pIC50

> print(dat)
                            structuresmiles  numericvalue
1  Cc1nn(C)c(C)c1N(C)S(=O)(=O)c1c(Cl)cc(Br)cc1Cl          5.45
2  Cc1nn(C)c(C)c1NS(=O)(=O)c1ccc(CCCN2CCN(C)CC2)cc1          5.46
3  Cc1nn(C)c(C)c1NS(=O)(=O)c1c(Cl)cc(C#CCN2CCN(C)CC2)cc1Cl          5.34
4  Cc1nn(C)c(C)c1NS(=O)(=O)c1c(Cl)cc(Br)cc1Cl          5.14

From: ChEMBL document CHEMBL3352323
